Reference source for all entries: PubChem BioAssay (NCATS)

# TEST DETAILS: qHTS profiling of the MIPE4 collection as inhibitors of Plasmodium falciparum (DD2) proliferation (AID 743345)
# CONDITION NOTES: P. falciparum Dd2 in erythrocytes, SYBR Green DNA, 72 h; at 28.5 µM (top of the series) unless noted
MEASURED ATTRIBUTE: parasite growth remaining, % of DMSO control (lower = more inhibition) (%)
Response body: numeric value in %, unit text excluded.

query: Please look up its parasite growth remaining, % of DMSO control (lower = more inhibition): CC1=C(CO)C(=O)O[C@@H]([C@@H](C)[C@H]2CC[C@H]3[C@@H]4C[C@H]5O[C@]56[C@@H](O)C=CC(=O)[C@]6(C)[C@@H]4CC[C@]23C)C1
result: 7.1

query: Please look up its parasite growth remaining, % of DMSO control (lower = more inhibition): Cn1c2cc(S(C)=O)sc2c2cnn(Cc3cccc(N)c3)c(=O)c21 (stereo not drawn)
result: 102

query: Please look up its parasite growth remaining, % of DMSO control (lower = more inhibition): CC(C)c1nn(-c2c(Cl)cccc2Cl)c2nc(Cc3ccc(OCCO)cc3)[nH]c(=O)c12
result: 62

query: Please look up its parasite growth remaining, % of DMSO control (lower = more inhibition): C=C1C(=CC=C2CCCC3(C)[C@@H]([C@H](C)C=CC=CC(O)(CC)CC)CC[C@@H]23)C[C@@H](O)C[C@@H]1O (stereo partly drawn)
result: 83.6

query: Please look up its parasite growth remaining, % of DMSO control (lower = more inhibition): O=C(Cc1ccc(-c2ccc(OCCN3CCOCC3)cc2)cn1)NCc1ccccc1
result: 20.2

query: Please look up its parasite growth remaining, % of DMSO control (lower = more inhibition): COc1ccc(CC2SC(=O)NC2=O)cc1C(=O)NCc1ccc(C(F)(F)F)cc1 (stereo not drawn)
result: 91.4

query: Please look up its parasite growth remaining, % of DMSO control (lower = more inhibition): CC1(C)OC2=C(C(=O)c3ccccc3C2=O)[C@H](NCc2ccccc2)[C@H]1O
result: 7.16

query: Please look up its parasite growth remaining, % of DMSO control (lower = more inhibition): Cc1c(Cn2c(C)nc3c(C(=O)O)cc(N4CCOCC4)cc32)cccc1C(F)(F)F
result: 93.9

###

# Tested on: MCC-26
# TEST DETAILS: qHTS assay to identify novel small-molecules to repurpose for Merkel cell carcinoma treatment (AID 1296009); further: nearly all actives have a fitted effect of over 60% in size
# CONDITION NOTES: MCC and control cell lines, CellTiter-Glo viability, 72 h; series mostly up to 46 µM
Results filed as inconclusive are left out. Active and inactive are the calls of the source. Calls come from the whole dose curve; as a rule, active = well fitted inhibition curve with a large enough effect; inconclusive = small, poorly fitted or top-dose-only effect; inactive = flat fitted curve, though single readings scatter.
Answer with one of the outcomes active, inactive

query: Recorded call for CC(C)c1cnn2c(NCc3ccccc3)cc(N[C@@H](CO)[C@H](O)CO)nc12 ?
result: active

query: Recorded call for C=C1C(=CC=C2CCCC3(C)[C@@H]([C@H](C)C=CC=CC(O)(CC)CC)CC[C@@H]23)C[C@@H](O)C[C@@H]1O (stereo not given in full) ?
result: inactive

query: Recorded call for CCCCCN(CCC12CC3CC(CC(C3)C1)C2)C(=O)NCCCc1ccncc1 ?
result: inactive

query: Recorded call for COC(=O)[C@]12CCC(C)(C)C[C@@H]1[C@@H]1C(=O)C=C3[C@@]4(C)C=C(C#N)C(=O)C(C)(C)[C@@H]4CC[C@@]3(C)[C@]1(C)CC2 ?
result: inactive

query: Recorded call for Cc1cc(CN2CCN(c3c(Br)cnc4nc(-c5ccc(N6CCN(C)CC6)cc5)[nH]c34)CC2)no1 ?
result: inactive

query: Recorded call for Cc1cn2c(-c3cn[nH]c3)cnc2c(Nc2ccc(C(=O)N3CCNCC3)cc2F)n1 ?
result: inactive

query: Recorded call for NCC(=O)Nc1ccc(-n2nc(C(F)(F)F)cc2-c2ccc3c(ccc4ccccc43)c2)cc1 ?
result: inactive

query: Recorded call for CCCNC(=O)Nc1ccc(Oc2ncnc3cc(OC)c(OC)cc23)cc1Cl ?
result: inactive

query: Recorded call for Cc1[nH]c2ccccc2c1CCNCc1ccc(C=CC(=O)NO)cc1 ?
result: active

query: Recorded call for CCCCCCCCCC(=O)N[C@@H](Cc1c[nH]c2ccccc12)C(=O)N[C@H](CC(N)=O)C(=O)N[C@@H](CC(=O)O)C(=O)N[C@@H]1C(=O)NCC(=O)N[C@@H](CCCN)C(=O)N[C@@H](CC(=O)O)C(=O)N[C@H](C)C(=O)N[C@@H](CC(=O)O)C(=O)NCC(=O)N[C@H](CO)C(=O)N[C@@H]([C@@H](C)CC(=O)O)C(=O)N[C@@H](CC(=O)c2ccccc2N)C(=O)O[C@@H]1C ?
result: inactive

query: Recorded call for CC(NCc1ccc2c(c1)nc(NC(=O)c1ccc(-c3cn[nH]c3)s1)n2CC(C)(C)O)C(C)(C)C (stereo not given) ?
result: active

query: Recorded call for Cc1ccc(S(=O)(=O)Nc2cc(Cl)ccc2C(=O)Nc2nc(-c3ccccc3)cs2)cc1 ?
result: inactive

query: Recorded call for COC(=O)C1=C(C)NC(C)=C(C(=O)OCCN2CCN(C(c3ccccc3)c3ccccc3)CC2)C1c1cccc([N+](=O)[O-])c1 (stereo not given) ?
result: inactive

query: Recorded call for Cc1nc(Nc2n[nH]c3c2CN(C(=O)N[C@H](CN(C)C)c2ccccc2)C3(C)C)c2sccc2n1 ?
result: active

query: Recorded call for CC=C1NC(=O)[C@H]2CSSCCC=C[C@H](CC(=O)N[C@H](C(C)C)C(=O)N2)OC(=O)[C@H](C(C)C)NC1=O ?
result: active
